Data credit: ChEMBL document CHEMBL2311414

assay: Selectivity index, ratio of IC50 for african green monkey Vero cells to IC50 for chloroquine-sensitive Plasmodium falciparum D6; type: toxicity, cell-based; details: read-out: Ratio IC50
selectivity ratio reference

- structureAsSmiles: "COc1cc(/C=C2\\CC/C(=C\\c3ccc(OCCCCn4ccnc4)c(OC)c3)C2=O)ccc1OCCCCn1ccnc1"
  selectivity ratio: "> 14.9"
- structureAsSmiles: "Cc1nccn1CCCCOc1ccc(/C=C2\\CC/C(=C\\c3ccc(OCCCCn4ccnc4C)cc3)C2=O)cc1"
  selectivity ratio: "> 7.7"
- structureAsSmiles: "COc1cc(/C=C2\\CC/C(=C\\c3ccc(OCCCCN4CCCCC4)c(OC)c3)C2=O)ccc1OCCCCN1CCCCC1"
  selectivity ratio: "> 4.3"

Continue with the next compound.
Task: Return value of selectivity ratio for input Cc1nccn1CCOc1ccc(/C=C2\CC/C(=C\c3ccc(OCCn4ccnc4C)cc3)C2=O)cc1 , no commentary.
Output: > 26.4
